These data points were gathered from patent US12098145B2.

Molecular target: TRPML1 (Homo sapiens)
Construct: expressed in transfected cells; host or cells: HEK T-REx cells stably expressing GCaMP6f and TRPML1
Sequence (Q9GZU1 whole entry): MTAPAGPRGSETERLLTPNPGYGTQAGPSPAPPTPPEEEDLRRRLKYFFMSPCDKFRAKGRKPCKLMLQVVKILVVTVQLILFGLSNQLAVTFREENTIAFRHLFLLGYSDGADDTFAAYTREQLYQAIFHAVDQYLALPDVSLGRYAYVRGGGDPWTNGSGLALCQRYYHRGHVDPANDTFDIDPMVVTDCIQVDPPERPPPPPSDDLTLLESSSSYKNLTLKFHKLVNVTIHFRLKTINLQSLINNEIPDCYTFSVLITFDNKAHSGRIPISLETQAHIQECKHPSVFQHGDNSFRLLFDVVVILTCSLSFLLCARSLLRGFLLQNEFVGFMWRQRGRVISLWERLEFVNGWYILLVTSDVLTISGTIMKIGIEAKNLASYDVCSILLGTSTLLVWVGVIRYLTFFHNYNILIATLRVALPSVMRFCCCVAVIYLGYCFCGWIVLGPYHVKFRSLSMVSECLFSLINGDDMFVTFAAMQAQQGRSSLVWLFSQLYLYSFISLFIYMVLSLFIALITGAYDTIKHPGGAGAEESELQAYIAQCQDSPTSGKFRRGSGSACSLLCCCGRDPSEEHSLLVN
Test: Cellular TRPML1 assay (FLIPR, GCaMP6f calcium read-out)
Assay type: cell-based
Conditions: HEKT-REx/GCaMP6f/TRPML1 cells, FLIPR TETRA, kinetic response over 300 seconds; read-out: TRPML1 FLIPR pEC50 (converted)
Entries and their EC50 values follow.

Give its EC50 value. Item: COC1(C)CN(c2nc(C(=O)Nc3cc(F)c4c(c3)CCN4C3CC4CC4C3)c(CC(F)(F)F)o2)C1 (stereo not shown)
1 to 10 µM

Give its EC50 value. Item: Cc1oc(-n2cccn2)nc1C(=O)Nc1ccc(N2CCCCC2)c(F)c1
10 to 100 µM

Quick one: EC50 for O=C(Nc1cc(F)c(O[C@@H]2C[C@@H]3C[C@@H]3C2)c(F)c1)c1nc(N2Cc3conc3C2)oc1CC(F)(F)F ?
0.01 to 1 µM

Would you kindly share the measured EC50 for Cc1oc(N2CCC(CN3CCC3)C2)nc1C(=O)Nc1ccc(N2CCCCC2)c(F)c1 (stereo not shown) ?
10 to 100 µM

Quick check: EC50 of CCc1oc(N2CC(CC)(OC)C2)nc1C(=O)Nc1cc(F)c(O[C@@H]2C[C@@H]3C[C@@H]3C2)c(Cl)c1 ?
0.01 to 1 µM

---

Here, each record is paired with measured EC50 data.
Target: TRPML1 (Homo sapiens)
Construct: expressed in transfected cells; host or cells: HEK T-REx cells stably expressing GCaMP6f and TRPML1
Assay: Cellular TRPML1 assay (FLIPR, GCaMP6f calcium read-out)
Format: cell-based
Details: HEKT-REx/GCaMP6f/TRPML1 cells, FLIPR TETRA, kinetic response over 300 seconds; read-out: TRPML1 FLIPR pEC50 (converted)

Below, each entry is followed by its recorded EC50 result.
O=C(Nc1ccc(OC2CCCC2(F)F)c(F)c1)c1nc(N2CC3CCCC3C2)oc1CC(F)(F)F (stereo not shown): 10 to 1000 nM
O=C(Nc1cc(F)c(OC2CCC3(CC3)C2)c(F)c1)c1nc(N2CCCC2)oc1CC(F)(F)F (stereo not shown): 10 to 1000 nM
O=C(Nc1ccc(OC2CCOCC2)c(F)c1)c1nc(N2CCCC2)oc1CC(F)(F)F: 1000 to 10000 nM
O=C(Nc1ccc(O[C@@H]2COCC2(F)F)c(F)c1)c1nc(N2CCCC2)oc1CC(F)(F)F: 1000 to 10000 nM
COC1(C)CN(c2nc(C(=O)Nc3cc(O)c(O[C@@H]4C[C@@H]5C[C@@H]5C4)c(F)c3)c(CC(F)(F)F)o2)C1: 1000 to 10000 nM
CCC1(CC)CN(c2nc(C(=O)Nc3cc(F)c(O[C@@H]4C[C@@H]5C[C@@H]5C4)c(F)c3)c(CN3CCC3)o2)C1: 1000 to 10000 nM

Next compound, please.
Give recorded EC50 with TRPML1 (Homo sapiens) for the following compound: CCC1(CC)CN(c2nc(C(=O)Nc3cc(O)c(OC4CC5CC(C5)C4)c(F)c3)c(CC(F)(F)F)o2)C1 (stereo not shown)
10 to 1000 nM

---

Target: TRPML1 (Homo sapiens)
Construct: expressed in transfected cells; host or cells: HEK T-REx cells stably expressing GCaMP6f and TRPML1
Experiment: Cellular TRPML1 assay (FLIPR, GCaMP6f calcium read-out)
Type: cell-based
Details: HEKT-REx/GCaMP6f/TRPML1 cells, FLIPR TETRA, kinetic response over 300 seconds; read-out: TRPML1 FLIPR pEC50 (converted)
PROPERTY: EC50

Example molecules with recorded EC50:
Cc1cc(NC(=O)c2nc(N3CCCC3)oc2CC(F)(F)F)cc(F)c1NC1CC2CC(C2)C1 (stereo not shown): 10 to 1000 nM
CCC1(OC)CN(c2nc(C(=O)Nc3ccc(O[C@@H]4C[C@@H]5C[C@@H]5C4)c(F)c3)c(CC(F)(F)F)o2)C1: 10 to 1000 nM
O=C(Nc1cc(F)c2c(c1)CCN2C1CC2CC2C1)c1nc(N2CCC3(COC3)C2)oc1CC(F)(F)F (stereo not shown): 1000 to 10000 nM

Then this molecule:
Find the recorded EC50 belonging to O=C(Nc1cc(F)c(OC2CC3C[C@@H]3C2)c(F)c1)c1nc(N2CC3COCC3C2)oc1CC(F)(F)F (stereo partly shown) and report it.
10 to 1000 nM
